# target or test system: BChE (Equine) (Equus caballus, UniProt P81908)
# Construct: purchased Sigma-Aldrich (Steinheim, Germany)
# Sequence (P81908 whole entry): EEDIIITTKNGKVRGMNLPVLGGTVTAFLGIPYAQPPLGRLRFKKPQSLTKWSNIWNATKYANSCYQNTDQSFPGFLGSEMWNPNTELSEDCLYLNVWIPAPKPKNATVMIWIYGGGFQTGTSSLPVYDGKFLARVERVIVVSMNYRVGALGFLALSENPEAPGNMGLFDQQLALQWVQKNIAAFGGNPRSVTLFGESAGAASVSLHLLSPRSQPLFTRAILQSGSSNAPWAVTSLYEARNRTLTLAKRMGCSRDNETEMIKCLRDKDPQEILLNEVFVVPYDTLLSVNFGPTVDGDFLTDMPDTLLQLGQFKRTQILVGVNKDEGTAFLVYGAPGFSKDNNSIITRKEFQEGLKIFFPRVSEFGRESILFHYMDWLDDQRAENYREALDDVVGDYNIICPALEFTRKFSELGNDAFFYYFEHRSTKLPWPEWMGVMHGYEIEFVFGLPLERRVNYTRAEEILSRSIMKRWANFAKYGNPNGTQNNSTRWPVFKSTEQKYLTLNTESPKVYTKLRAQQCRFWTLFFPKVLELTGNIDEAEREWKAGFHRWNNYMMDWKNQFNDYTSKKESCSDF
# assay explanation: biochemical
# Format: biochemical
# experimental context: 10^-5 M
Label rule, in plain words: BChE (Equine) inhibitory activity (%) ± SD of 70% and up is rule met, under 70% is rule not met.

Quick check, BChE (Equine) inhibitory activity (%) ± SD >= 70%? Cc1ccc(CN2CCN(C(=S)SCC(=O)Nc3c4ccccc4nc4ccccc34)CC2)cc1
rule not met

Quick check, BChE (Equine) inhibitory activity (%) ± SD >= 70%? O=C(CSC(=S)N1CCN(CCO)CC1)Nc1c2ccccc2nc2ccccc12
rule not met

Quick check, BChE (Equine) inhibitory activity (%) ± SD >= 70%? O=C(CSC(=S)N1CCN(C(c2ccccc2)c2ccccc2)CC1)Nc1c2ccccc2nc2ccccc12
rule met

Quick check, BChE (Equine) inhibitory activity (%) ± SD >= 70%? CC1CCCCN1C(=S)SCC(=O)Nc1c2ccccc2nc2ccccc12 (stereo not shown)
rule not met

Quick check, BChE (Equine) inhibitory activity (%) ± SD >= 70%? O=C(CSC(=S)N1CCN(c2ccc(Cl)cc2)CC1)Nc1c2ccccc2nc2ccccc12
rule not met

Quick check, BChE (Equine) inhibitory activity (%) ± SD >= 70%? CN(C)CCN1CCN(C(=S)SCC(=O)Nc2c3ccccc3nc3ccccc23)CC1
rule met

----------
Give measured BChE (Equine) inhibitory activity (%) ± SD for each item. Keep answers brief.
# target or test system: BChE (Equine) (Equus caballus)
# Construct: purchased Sigma-Aldrich (Steinheim, Germany)
# assay explanation: biochemical
# Assay type: biochemical
# experimental context: 10^-6 M
# Procedure: The assay was performed in two steps. All enzymes were obtained from Sigma-Aldrich (Steinheim, Germany). Ellman’s reagent and the substrates were obtained from Fluka (Buchs, Switzerland). The chemicals used to prepare the buffer solution were purchased from Merck (Darmstadt, Germany). The enzyme inhibitory activities of the synthesized compounds were investigated by applying Ellman’s method. […] All readings were adjusted with blank-reading. […]
API: value field is a number in %; no unit string.

The reported BChE (Equine) inhibitory activity (%) ± SD of the molecule O=C(CSC(=S)N1CCN(c2ccc(Cl)cc2)CC1)Nc1c2ccccc2nc2ccccc12 was 38.72

The reported BChE (Equine) inhibitory activity (%) ± SD of the molecule CC1CCCCN1C(=S)SCC(=O)Nc1c2ccccc2nc2ccccc12 (stereo not shown) was 41.33

The reported BChE (Equine) inhibitory activity (%) ± SD of the molecule O=C(CSC(=S)N1CCN(CCO)CC1)Nc1c2ccccc2nc2ccccc12 was 29.52

The reported BChE (Equine) inhibitory activity (%) ± SD of the molecule Cc1ccc(CN2CCN(C(=S)SCC(=O)Nc3c4ccccc4nc4ccccc34)CC2)cc1 was 42.99

The reported BChE (Equine) inhibitory activity (%) ± SD of the molecule CN(C)CCN1CCN(C(=S)SCC(=O)Nc2c3ccccc3nc3ccccc23)CC1 was 52.10

The reported BChE (Equine) inhibitory activity (%) ± SD of the molecule O=C(CSC(=S)N1CCN(C(c2ccccc2)c2ccccc2)CC1)Nc1c2ccccc2nc2ccccc12 was 80.30

The reported BChE (Equine) inhibitory activity (%) ± SD of the molecule CN(C)CCCN1CCN(C(=S)SCC(=O)Nc2c3ccccc3nc3ccccc23)CC1 was 46.10

Recorded values, source paper PMC6222329.
